The values you see were collected from ChEMBL document CHEMBL3817745.

- System: Streptococcus oralis
- test-description: Antibacterial activity against Streptococcus oralis ATCC 9811 incubated for 16 to 20 hrs by microdilution method
- Type: functional
Catalogue of MIC values
recorded-endpoint: MIC

>>> df
                    structure_smiles_string                system  recorded_endpoint  recorded_value
0  N#Cc1ccc(/C=C/c2nc3ccccc3c(=O)n2-c2cccc(C(=O)O)c2)cc1  Streptococcus oralis                MIC     > 128 µg/mL
1  N#Cc1ccc(/C=C/c2nc3ccccc3c(=O)n2-c2cccc(O)c2)cc1  Streptococcus oralis                MIC     > 128 µg/mL
2  CS(=O)(=O)Nc1cccc(-n2c(/C=C/c3ccc(C#N)cc3)nc3ccccc3c2=O)c1  Streptococcus oralis                MIC     > 128 µg/mL
